target: p53/MDM2 interaction [MDM2 (1-118) 6 his and GST-p53(1-50)] (Homo sapiens); construct: The human MDM2 N-terminal fragment encompassing amino acids 1-118; E. coli DH5alpha (GST-p53); experiment: Measurement of the inhibition of p53/MDM2 interaction (modified ELISA); conditions: 75 nM GST-p53 coated, 75 nM MDM2-6His, NTA-AP detection, optical density at 405 nm, compounds tested between 0 and 100 μM
Sequence (Q00987 1-118): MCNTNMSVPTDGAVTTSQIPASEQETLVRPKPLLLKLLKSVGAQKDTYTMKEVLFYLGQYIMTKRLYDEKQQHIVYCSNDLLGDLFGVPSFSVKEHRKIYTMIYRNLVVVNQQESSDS
pIC50: −log10 of the molar value.
MEASURED_ENDPOINT: pIC50

Input: Give the reported pIC50 for `Cc1occc1C(=O)N[C@@H](Cc1c[nH]c2ccccc12)C(=O)N1CCN(c2ccc([N+](=O)[O-])cc2)CC1` (system: p53/MDM2 interaction [MDM2 (1-118) 6 his and GST-p53(1-50)] (Homo sapiens)).
Output: ~5.40

Cited source: patent US6770627B1
